- System: 454973-116-R2-J3-PDC complex spheroid viability
- MEASUREMENT NOTES: Anticancer human tumor 454973-116-R2-J3-PDC patient-derived pancreatic carcinoma cell line growth inhibition [POLQ]
- RUN PARAMETERS: second compound 3.16 µM; first compound 0.316 µM; active compounds read low
ASSAY ENDPOINT: viability, T/C (%)
Give bare numbers, in %.

O=c1[nH]cc(F)c(=O)[nH]1 + Cc1cccc(N(C)C(=O)C2C(O)CCN2c2nc(C)cc(C(F)(F)F)c2C#N)c1 = 108
CC(C)n1c(=O)n(C)c2cnc3cc(F)c(-c4ccc(OCCCN5CCCCC5)nc4)cc3c21 + Cc1cccc(N(C)C(=O)C2C(O)CCN2c2nc(C)cc(C(F)(F)F)c2C#N)c1 = 108
COc1cccc2c1C(=O)c1c(O)c3c(c(O)c1C2=O)CC(O)(C(=O)CO)CC3OC1CC(N)C(O)C(C)O1 (centres undefined) + COC1C(OC(N)=O)C(O)C(Oc2ccc3c(O)c(NC(=O)c4ccc(O)c(CC=C(C)C)c4)c(=O)oc3c2C)OC1(C)C = 22.9
COc1ccc([C@@H](O)c2cc(-c3ncnc4cc(N5CCOCC5)ccc34)c(F)cc2Cl)nn1 + COC1C(OC(N)=O)C(O)C(Oc2ccc3c(O)c(NC(=O)c4ccc(O)c(CC=C(C)C)c4)c(=O)oc3c2C)OC1(C)C = 98.8
O=c1[nH]cc(F)c(=O)[nH]1 + Nc1ccc(C#CCN(C(=O)Cc2ncc(C(F)(F)F)cc2C(F)(F)F)c2ccc(F)cc2)nn1 = 106

Could you report viability, T/C for every entry in the following list?
1. Nc1ccn(C2OC(CO)C(O)C2(F)F)c(=O)n1 (centres undefined) + Nc1ccc(C#CCN(C(=O)Cc2ncc(C(F)(F)F)cc2C(F)(F)F)c2ccc(F)cc2)nn1
2. O=C(Nc1ccc(O)c(NS(=O)(=O)c2ccc(F)cc2)c1)c1ccc(-c2ccccc2)cc1 + Nc1ccc(C#CCN(C(=O)Cc2ncc(C(F)(F)F)cc2C(F)(F)F)c2ccc(F)cc2)nn1
3. CC1COCCN1c1cc(C2(S(C)(=N)=O)CC2)nc(-c2ccnc3[nH]ccc23)n1 (centres undefined) + Cc1cccc(N(C)C(=O)C2C(O)CCN2c2nc(C)cc(C(F)(F)F)c2C#N)c1
4. CC1COCCN1c1cc(-c2ccnn2C)c2ccnc(-c3ccn[nH]3)c2n1 (centres undefined) + Nc1ccc(C#CCN(C(=O)Cc2ncc(C(F)(F)F)cc2C(F)(F)F)c2ccc(F)cc2)nn1

RESULT:
[6.31, 106, 113, 18.2]

###

- Tested on: 454973-116-R2-J3-PDC complex spheroid viability
- MEASUREMENT NOTES: Anticancer human tumor 454973-116-R2-J3-PDC cell line growth inhibition [POLQ];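 further: spheroids exposed to drugs for seven days before measurement; percent viability relative to DMSO vehicle control wells taken as 100%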
- RUN PARAMETERS: second compound 1 µM; first compound 3.16 µM; active compounds read low
ASSAY ENDPOINT: viability, T/C (%)
Give bare numbers, in %.

Batch of 3 molecules: report viability, T/C for each.
1. COc1cc2cc(C(=O)CCC(=O)O)sc2cc1OC + Nc1ccc(C#CCN(C(=O)Cc2ncc(C(F)(F)F)cc2C(F)(F)F)c2ccc(F)cc2)nn1
2. COc1cccc2c1C(=O)c1c(O)c3c(c(O)c1C2=O)CC(O)(C(=O)CO)CC3OC1CC(N)C(O)C(C)O1 (stereo not drawn) + COC1C(OC(N)=O)C(O)C(Oc2ccc3c(O)c(NC(=O)c4ccc(O)c(CC=C(C)C)c4)c(=O)oc3c2C)OC1(C)C
3. C=CC(=O)N1CCN(c2nc(=O)n(-c3c(C)ccnc3C(C)C)c3nc(-c4c(O)cccc4F)c(F)cc23)C(C)C1 (stereo not drawn) + Nc1ccc(C#CCN(C(=O)Cc2ncc(C(F)(F)F)cc2C(F)(F)F)c2ccc(F)cc2)nn1

RESULT:
108
3.28
121
